Molecular target: T1, KW27-14 (human CD39 mutant, C-terminal EGFP) (human, UniProt P49961 1-510)
T1 construct: expressed on HEK293F cells; not shown: C-terminal EGFP fusion (vector pCMV3-GFPSpark)
T1 chain: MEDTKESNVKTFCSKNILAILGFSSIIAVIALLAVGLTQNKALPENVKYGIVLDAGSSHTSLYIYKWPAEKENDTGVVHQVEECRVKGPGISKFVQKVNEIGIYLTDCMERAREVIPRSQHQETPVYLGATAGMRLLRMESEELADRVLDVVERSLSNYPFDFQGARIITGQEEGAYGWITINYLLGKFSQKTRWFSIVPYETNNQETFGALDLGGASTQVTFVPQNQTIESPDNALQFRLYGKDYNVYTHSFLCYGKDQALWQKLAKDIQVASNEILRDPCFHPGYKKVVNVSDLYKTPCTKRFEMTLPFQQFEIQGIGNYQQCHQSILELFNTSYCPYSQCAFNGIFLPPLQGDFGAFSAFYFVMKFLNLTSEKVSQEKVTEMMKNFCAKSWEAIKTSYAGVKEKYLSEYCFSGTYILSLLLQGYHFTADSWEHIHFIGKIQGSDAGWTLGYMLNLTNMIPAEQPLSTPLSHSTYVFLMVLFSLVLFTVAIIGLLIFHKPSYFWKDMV
Assay: FACS, mutant-EGFP on HEK293F cells

# Binder, binding result
records = [
    ("hu23.H5L5 (antibody, V domains shown, humanized c23) VH: QVQLVQSGAEVKKPGASVKVSCKASGYNLKDTFLHWVRQAPGQGLEWMGRIDPANGNIKYDPKFQGRVTITADTSANTAYMELISLRSEDTAVYYCANSPYYYGSGYRIFDVWGQGTTVTVSS VL: QIVLTQSPATLSLSPGERATLSCSAFSSVNYMHWYQQKPGQAPRLLIYTTSNLASGIPTRFSGSGSGTSYTLTISSLEPEDFAVYYCQQRSTYPFTFGQGTKLEIK", "binds"),
    ("Antibody 9-8B (antibody, V domains shown) VH: QIQLVQSGPELKKPGETVKISCKASGYTFTHYGMNWVKQAPGKGLKWMGWINTYTGELTYADDFKGRFAFSLETSASTAYLQINNLKNEDTATYFCARRAYYRYDYVMDYWGQGTSVTVSS VL: DIVMTQSQKFMSTSVGDRVSVTCKASHNVGTNVAWYQQKPGQSPKALIYSASYRYSGVPGRFTGSGSGTDFTLTISNVQSEDLAEYFCHQYNNYPYTFGGGTKLEIK", "binds"),
    ("c35 (antibody, V domains shown, its making is not described; also called chimeric antibody c35) VH: EVRLQQSGAELVKPGASVKLSCTASGFNIEDTYVHWMKQRPEQGLEWIGRIDPAIDNSKYDPKFQGKATITAVSSSNTAYLQLSSLTSEDTAVYYCALYDGYNVYAMDYWGQGTSVTVSS VL: DIVMTQAAFSNPVTLGTSASISCRSSKNLLHSNGITYLYWYLQRPGQSPQLLIYRASTLASGVPNRFSGSESGTDFTLRISRVEAEDVGVYYCAQLLELPHTFGGGTKLEIK", "binds"),
]
